Values were extracted from patent US7326788B2.

Dear all, this message contains IC50 results, target or system c-fms (Homo sapiens, UniProt P07333).

These solved cases illustrate the format of a correct answer.
                                   molecule         measvalue
0  O=c1[nH]c2ccc(Cl)cc2c(-c2ccccc2)c1-c1cn(Cc2ccccc2)nn1    500 to 1000 nM
1  Cc1cc(-c2c(-c3cccs3)c3cc(Cl)ccc3[nH]c2=O)on1          < 500 nM
2  O=c1[nH]c2ccc(Cl)cc2c(-c2ccccc2)c1-c1cccnc1  1000 to 10000 nM
3  O=C(O)c1cc(-c2c(-c3ccccc3)c3cc(Cl)ccc3[nH]c2=O)on1          < 500 nM

Proceeding to the next molecule to report its IC50.
Query: Given `Cc1cc(-c2c(-c3ccccc3)c3cc(CO)ccc3[nH]c2=O)on1` , state its recorded IC50.
Reply: > 10000 nM
